# assay.method.text: folding stability dG unfold (combined trypsin and chymotrypsin); higher = more stable
Decision: folding stability dG unfold compared against 2 kcal/mol; not below it gives Satisfied, below it gives Not satisfied.

Some solved cases for reference:
# record.sequence, class.label
measured = [
    ("SAGGANAKDVKRDGNNIQITFDGQILFKIQPPKPVPPVRVRHPDGKEHHAPLEDLKKENPDNWEIEPPSAGG [r13_802_TrROS]", "Not satisfied"),
    ("SKTFYAGLDVYFDPDSDELTALVGVRSEDGSYEPSLEEVAREVAAKLRELGYEVEVEPLPGYARIRVKPPSA [r9_510_TrMRF]", "Not satisfied"),
    ("SAGGMTIFLPLENKEEVIEKLKKEGYKPVEVKEEGDVVTIKVEKKKDEKKEEITIVFYPPSKPEEPVSAGGS [r8_307_JUSTAS]", "Satisfied"),
    ("SAGGSAGGSAGMTLTLEFTDPEVAIPLAEKLAEELGLELVEIEEREEGERPVYLVTLKVPSAGGSAGGSAGG [r11_232_JUSTAS]", "Not satisfied"),
    ("SAGGSAGGSGIPVEPIPVRNPKGEIVEVIRFPEDFALVVFPSGERALLRGPELSLRDVVFFPLSAGGSAGGS [r12_491_TrMRF]", "Not satisfied"),
]

Exam item: decide whether the reported folding stability dG unfold for SAGSSLRLELDLEVTLYAPVVSVRPDGSLSLVPGSTRPIPVRLRVTFELTLDPDNPLNVSINVDIEADFSAG [r14_274_TrMRF] is at least 2 kcal/mol. Satisfied

Exam item: decide whether the reported folding stability dG unfold for SAGPKIEIHYTPNGIHLTIELPGEWIWMMIPVPPGEKVKIRLPGNGLEITARPYDDYVMIRIRIPDAPSAGG [r19_384_TrROS] is at least 2 kcal/mol. Satisfied
